// cross-source set; read-out = IC50; system = Substance-P receptor (Homo sapiens, UniProt P25103)
Sequence (P25103 whole entry): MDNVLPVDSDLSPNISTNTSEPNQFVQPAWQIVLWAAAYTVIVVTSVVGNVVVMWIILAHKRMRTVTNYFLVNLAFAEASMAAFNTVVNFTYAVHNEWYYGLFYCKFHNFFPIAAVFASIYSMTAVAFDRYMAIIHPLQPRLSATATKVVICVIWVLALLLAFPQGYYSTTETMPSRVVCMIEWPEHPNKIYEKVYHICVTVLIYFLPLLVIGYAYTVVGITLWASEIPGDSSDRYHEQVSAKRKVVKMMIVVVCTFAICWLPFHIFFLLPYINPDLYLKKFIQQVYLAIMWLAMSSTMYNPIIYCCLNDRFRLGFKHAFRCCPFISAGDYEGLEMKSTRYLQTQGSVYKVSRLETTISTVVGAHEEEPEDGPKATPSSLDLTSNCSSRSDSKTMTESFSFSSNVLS
Write the numeric value and append its unit.

Data request, read-out IC50, for C[C@@H](OC1OCCN(Cc2n[nH]nc2CN2CCC2)[C@H]1c1ccc(F)cc1)c1cc(C(F)(F)F)cc(C(F)(F)F)c1 (some centres undefined)
0.19 nM

Queued: COc1ccc(-n2nnnc2C(F)(F)F)cc1CN[C@H]1CCNC[C@H]1c1ccccc1 (racemic)
1.4 nM

Queued: CN(C)C(=O)N(C)[C@@H]1CC[C@H](OCc2cc(C(F)(F)F)cc(C(F)(F)F)c2)[C@H]1c1ccccc1 (racemic)
16 nM

Queued: `CC(C)C[C@](Cc1c[nH]c2ccccc12)(NC(=O)OCc1cc2ccccc2o1)C(=O)N[C@@H](C)c1ccccc1`
3.79 nM
